Measured values drawn from patent US9604931B2 for this set.

Measured Target: ERα ligand binding domain (Homo sapiens)
Sequence (P03372 whole entry, looked up, the tested form may be a part): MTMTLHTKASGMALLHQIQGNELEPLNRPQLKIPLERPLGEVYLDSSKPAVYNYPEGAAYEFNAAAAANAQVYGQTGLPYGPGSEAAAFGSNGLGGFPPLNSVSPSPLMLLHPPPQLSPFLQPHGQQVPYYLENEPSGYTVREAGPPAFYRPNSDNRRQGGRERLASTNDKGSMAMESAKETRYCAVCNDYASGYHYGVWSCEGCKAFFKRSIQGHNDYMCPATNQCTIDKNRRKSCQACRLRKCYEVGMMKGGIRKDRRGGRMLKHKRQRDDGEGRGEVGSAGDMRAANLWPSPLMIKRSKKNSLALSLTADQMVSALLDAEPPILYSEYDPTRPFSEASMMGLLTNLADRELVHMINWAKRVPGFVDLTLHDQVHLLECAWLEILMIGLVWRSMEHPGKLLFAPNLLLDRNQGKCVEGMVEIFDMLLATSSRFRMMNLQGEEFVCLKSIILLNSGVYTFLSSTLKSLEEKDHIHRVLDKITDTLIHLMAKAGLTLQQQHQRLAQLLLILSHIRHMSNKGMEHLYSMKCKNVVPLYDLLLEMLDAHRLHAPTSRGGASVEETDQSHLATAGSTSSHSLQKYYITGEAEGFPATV
Protocol Summary: Competitive [3H]-estradiol binding assay, ER-α (Example 21)
Experimental Parameters: 100 nM of compound; read-out: Percent Inhibition of [3H]-Estradiol Binding to ER-α
For each entry below, report its inhibition at 0.1 µM value.
Express it in %; write the number only.

input: Item O=c1c2c(O)cc(O)cc2c(Br)cn1-c1ccc(O)cc1 [12u] has what recorded inhibition at 0.1 µM?
output: 61.3

input: Find the recorded inhibition at 0.1 µM belonging to O=c1c2ccc(O)cc2c(Cl)cn1-c1ccc(O)c(F)c1 [12g] and report it.
output: 0

input: Which inhibition at 0.1 µM value belongs to O=c1c2ccc(O)cc2c(I)cn1-c1ccc(O)cc1 [12h] ?
output: 7.7
